Test system: internal bronchia
Assay: Cooling towel (washing processed), organoleptic ranking of cooling action
Type: in vivo
Conditions: Group B; 24 hr (third time point); 1% in base washing detergent; low sum = strong
Observation Type: sum of the ranking numbers (cooling effect on treated hand towel after washing)
// print number alone

Here is how some molecules turned out for sum of the ranking numbers (cooling effect on treated hand towel after washing).
CC(C)=CCC[C@H](C)CC1OCC(CO[C@@H]2C[C@H](C)CC[C@H]2C(C)C)O1 (some centres unmarked)	13
CC(C)[C@@H]1CC[C@@H](C)C[C@H]1O [l-Menthol, 1-menthol, reference compound]	25
CC(C)[C@@H]1CC[C@@H](C)C[C@H]1OC(=O)O[C@@H]1C[C@H](C)CC[C@H]1C(C)C [Di-l-menthyl carbonate, di-1-menthyl carbonate]	16
CC(C)=CCCC1(C)OCC(CO[C@@H]2C[C@H](C)CC[C@H]2C(C)C)O1 (some centres unmarked)	10

Pending molecule:
Req: For the molecule CC(C)[C@@H]1CC[C@@H](C)C[C@H]1OCC1COC(c2ccccc2)O1 (some centres unmarked) , what sum of the ranking numbers (cooling effect on treated hand towel after washing) is on record?
Resp: 11
